Tested on: HIV-1 (JRCSF)
EXPERIMENT SUMMARY: Anti-HIV activity in MaRBLE cells infected with HIV-1 (JRCSF), luciferase readout
Format: cell-based
ASSAY SETUP: Human immunodeficiency virus 1, 168 h; MaRBLE cells (human T lymphocyte-derived HPB-M(a)) infected with HIV-1 (JRCSF); 7 days culture; rate of viral proliferation by luciferase activity; read-out: Anti-HIV activity IC50
pIC50: −log10 of the molar value.
PROPERTY NAME: pIC50

Some entries whose results are on file:
{"columns": ["COMPOUND", "SYSTEM NAME", "pIC50"],
 "data": [
  ["Cc1ncnc2c1c(NCc1ccc(O)cc1)cc(=O)n2O [Example 110]", "HIV-1 (JRCSF)", 7.31],
  ["CC(Nc1cc(=O)n(O)c2ncncc12)c1ccccc1 (centres unmarked) [Example 7]", "HIV-1 (JRCSF)", 6.77],
  ["Cc1ncnc2c1c(NCc1ccccc1N1CCCCC1)cc(=O)n2O [Example 138]", "HIV-1 (JRCSF)", 7.03],
  ["Cc1ncnc2c1c(NCc1ccc(C(F)(F)F)nc1)cc(=O)n2O [Example 83]", "HIV-1 (JRCSF)", 6.43],
  ["O=C(NCc1ccccc1)c1ncnc2c1c(O)cc(=O)n2O [Example 63]", "HIV-1 (JRCSF)", 6.06],
  ["Cc1ncnc2c1c(NCc1nc3ccccc3[nH]1)cc(=O)n2O [Example 55]", "HIV-1 (JRCSF)", 6.35]
]}

1: Cc1ccncc1CNc1cc(=O)n(O)c2ncnc(C)c12 [Example 54]
2: O=c1cc(Nc2ccccc2)c2cncnc2n1O [Example 16]
Looking only at measured pIC50, which entry is lower, 1 or 2 ? Please reply using the label of the selected record.
2

====

System: HIV-1 (JRCSF)
EXPERIMENT SUMMARY: Anti-HIV activity in MaRBLE cells infected with HIV-1 (JRCSF), luciferase readout
Format: cell-based
ASSAY SETUP: MaRBLE cells (human T lymphocyte-derived HPB-M(a)) infected with HIV-1 (JRCSF); 7 days culture; rate of viral proliferation by luciferase activity; read-out: Anti-HIV activity IC50
PROPERTY NAME: pIC50
Here pIC50 is given on a logarithmic scale as minus log10 of the concentration in mol/L.

Notebook: Cc1ncnc2c1c(NCc1ccc(Oc3ccccc3)nc1)cc(=O)n2O , pIC50 read as 7.00

====

System: HIV-1 (JRCSF)
EXPERIMENT SUMMARY: Anti-HIV activity in MaRBLE cells infected with HIV-1 (JRCSF), luciferase readout
Type: cell-based
ASSAY SETUP: Human immunodeficiency virus 1, 168 h; MaRBLE cells (human T lymphocyte-derived HPB-M(a)) infected with HIV-1 (JRCSF); 7 days culture; rate of viral proliferation by luciferase activity; read-out: Anti-HIV activity IC50
PROPERTY NAME: IC50 (nM)

{"columns": ["MOL", "PROPERTY NAME", "READING"],
 "data": [
  ["Cc1ncnc2c1c(NC1CCCCC1)cc(=O)n2O", "IC50", 110],
  ["Cc1ncnc2c1c(NCc1cccnc1OCC(F)(F)F)cc(=O)n2O", "IC50", 83],
  ["O=C(Nc1ccccc1)c1c(O)c2c(Nc3ccccc3)ncnc2n(O)c1=O", "IC50", 360]
]}

1: Cc1ncnc2c1c(NCc1ccc(N)cc1)cc(=O)n2O
2: O=c1cc(O)c2c(NCCc3ccccc3)ncnc2n1O
Hello, I am sorting some records. Could you say if 1 or 2 has the smaller IC50 value? # reply format: chosen label
1
(1: 63 nM, 2: 570 nM)

P: CCN(CC)c1ccc(CNc2cc(=O)n(O)c3ncnc(C)c23)cc1
Q: Cc1ncnc2c1c(NCc1cccc(OC(F)(F)F)c1)cc(=O)n2O
R: O=c1cc(O)c2c(NCc3ccccc3)ncnc2n1O
# ascending order, key=IC50 Quick reminder: the answer is the labels in the order asked.
P, Q, R

A: Cc1ncnc2c1c(NCc1ccc(C(F)(F)F)cc1)cc(=O)n2O
B: Cc1ncnc2c1c(N)cc(=O)n2O
C: O=c1cc(O)c2c(O)ncnc2n1O
Sequence the entries by IC50, beginning with the highest number. Please list the labels according to the requested order.
C, B, A
(C: 590 nM, B: 150 nM, A: 71 nM)

a: COc1ccc(CNc2cc(=O)n(O)c3ncnc(C)c23)cn1
b: O=c1c(-c2ccccc2)c(O)c2c(-c3ccccc3)ncnc2n1O
Form field 'greater IC50' accepts a or b ; which applies? Select an item and report its label.
b

1: Cc1ncnc2c1c(NCc1ccc(O)c(O)c1)cc(=O)n2O
2: Cc1ncnc2c1c(NCc1cccc(NS(C)(=O)=O)c1)cc(=O)n2O
3: Cc1c(O)c2c(-c3ccccc3)ncnc2n(O)c1=O
Parameters: sort_field (IC50), sort_dir (desc). Form entry: ranked labels (order as requested).
3, 2, 1

1: Cc1ncnc2c1c(NCc1ccccc1NS(C)(=O)=O)cc(=O)n2O
2: COc1ccccc1CNc1cc(=O)n(O)c2ncnc(C)c12
Which has the smaller recorded IC50, 1 or 2 ? When you have decided, please share the label of that item.
2

a: Cc1ncnc2c1c(NCc1ccccc1F)cc(=O)n2O
b: O=c1cc(NCc2ccc(F)cc2F)c2cncnc2n1O
Select one: a or b . Criterion: greater recorded IC50. Kindly give the label for the entry you pick.
b

====

Tested on: HIV-1 (JRCSF)
EXPERIMENT SUMMARY: Anti-HIV activity in MaRBLE cells infected with HIV-1 (JRCSF), luciferase readout
Type: cell-based
ASSAY SETUP: Human immunodeficiency virus 1, 168 h; MaRBLE cells (human T lymphocyte-derived HPB-M(a)) infected with HIV-1 (JRCSF); 7 days culture; rate of viral proliferation by luciferase activity; read-out: Anti-HIV activity IC50
PROPERTY NAME: IC50 (µM)

1: Cc1ncnc2c1c(NCc1cccnc1N(C)C)cc(=O)n2O
2: Cc1ncnc2c1c(NCC1CCN(C)CC1)cc(=O)n2O
Between item 1 and item 2 , which reported IC50 is smaller? Refer to your chosen item by its label in the answer.
1

a: Cc1ncnc2c1c(NCc1ccc3[nH]ccc3c1)cc(=O)n2O
b: O=c1cc(NCc2ccc(O)c(O)c2)c2cncnc2n1O
Could you tell me which of a and b has the lower IC50 reading? Pick one and reply with its label.
a

1: COc1ccc(CNc2cc(=O)n(O)c3ncnc(C)c23)c(OC)c1
2: Cc1ncnc2c1c(O)c(-c1ccccc1)c(=O)n2O
3: O=c1cc(NCc2ccccn2)c2cncnc2n1O
4: Cc1ncnc2c1c(NCc1ccc(N3CCCCC3)nc1)cc(=O)n2O
5: Cc1ncnc2c1c(NCc1ccc(Cl)cc1)cc(=O)n2O
Please list these compounds in decreasing order of IC50. Sort and list the labels as requested.
4, 2, 3, 1, 5

====

Test system: HIV-1 (JRCSF)
EXPERIMENT SUMMARY: Anti-HIV activity in MaRBLE cells infected with HIV-1 (JRCSF), luciferase readout
Assay type: cell-based
ASSAY SETUP: Human immunodeficiency virus 1, 168 h, read-out: Anti-HIV activity IC50
Structures can show the parent of a compound that is named as a salt.
Listing of entries alongside the reported IC50.
// note: answer is a bare numeric in nM

{"columns": ["MOLECULE", "UNIT STRING", "IC50"],
 "data": [
  ["Cc1ncnc2c1c(NCCCN(C)C)cc(=O)n2O [Example 155, hydrochloride]", "nM", 230]
]}

Now look at this one.
For CNc1cccc(CNc2cc(=O)n(O)c3ncnc(C)c23)c1 the molecule record lists IC50 as 76

====

Tested on: HIV-1 (JRCSF)
EXPERIMENT SUMMARY: Anti-HIV activity in MaRBLE cells infected with HIV-1 (JRCSF), luciferase readout
Assay type: cell-based
ASSAY SETUP: Human immunodeficiency virus 1, 168 h; MaRBLE cells (human T lymphocyte-derived HPB-M(a)) infected with HIV-1 (JRCSF); 7 days culture; rate of viral proliferation by luciferase activity; read-out: Anti-HIV activity IC50
pIC50: −log10 of the molar value.
PROPERTY NAME: pIC50

Example entries begin here.
{"columns": ["COMPOUND", "SYSTEM NAME", "READING"],
 "data": [
  ["Cc1ncnc2c1c(NCc1cccc(C#N)c1)cc(=O)n2OCc1ccccc1", "HIV-1 (JRCSF)", 7.19],
  ["Cc1ncnc2c1c(NCc1ccc(OCCO)cc1)cc(=O)n2O", "HIV-1 (JRCSF)", 7.05]
]}

A: O=c1cc(O)c2c(Cc3ccccc3)ncnc2n1O
B: Cc1ncnc2c1c(NC(C)c1cccnc1)cc(=O)n2O (stereo not shown)
C: COc1ccc(CNc2cc(=O)n(O)c3ncnc(C)c23)cc1
D: Cc1ncnc2c1c(NCc1ccc(NS(C)(=O)=O)cc1)cc(=O)n2O
Ordering: ascending pIC50. Put the labels in the requested order and list them out.
A, D, B, C
(A: 6.25, D: 6.57, B: 7.10, C: 7.54)

The values you see were collected from patent US20150018546A1.
